Biological target: Mitogen-activated protein kinase 10 (Mus musculus) (UniProt Q61831)
Assay: JNK3 AlphaScreen Assay (AID 530);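 further: kinase came from lysate of stimulated human HepG2 cells; signal reports phosphorylation of biotinylated GST-cJun 1-79 at Ser73 with 10 µM ATP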
Details: JNK3 lysate, c-Jun phosphorylation; series mostly up to 11.4 µM
Results filed as inconclusive are left out. Calls of active or inactive are those of the source. The call rests on the fitted dose curve; in most records, active means well fitted curve in either direction with a large enough effect (not every such curve was filed as active); inconclusive means small, poorly fitted or top-dose-only effect, or another doubt; inactive means flat fitted curve, though single readings scatter.
MEASUREMENT_LABEL: outcome

O=C(O)C(=Cc1ccnc2ccccc12)C(=O)O	inactive
Cn1c(=S)c2[nH]c(SCCN3C(=O)c4ccccc4C3=O)nc2n(C)c1=O	inactive
O=S(O)O.O=S(O)O.[Co].[NH2-].[NH2-].[NH2-].[NH2-]	inactive
C[C@H]1CN(CCO)CCN1c1ccccc1	inactive
O=C(O)c1nn(-c2ccc(Cl)cc2)c2c1C(=O)c1ccccc1C2=O	inactive

Moving on to another compound below.
// outcome value for CN(C(=O)c1ccncc1)c1ccccc1 : inactive

Provenance of the data: PubChem BioAssay (NCATS)
